- Tested on: MS2 coat protein
- experiment_summary: apparent KD of MS2 coat protein; designed switch direction (-1 OFF switch, 1 ON switch): -1; higher = weaker reporter binding
- test_context: Eterna round: R95; input ligand: microRNA oligo, concentration not stated
Short version: apparent KD of MS2 coat protein at least 50 nM is criterion met, less is criterion not met.

- polymer_sequence: "GGUUGGCGAGGAUAUACAUGAGGAUCACCCAUGUGAGAGAAAAAAGUGAGGACGAAAAGUAGAAGGCGCUGACG [salish99_ex3_r3_032] (puzzle: Exclusion 3)"
  test_target: "MS2 coat protein"
  class_name: "criterion met"
- polymer_sequence: "AGUACUAACACGGAAGUGUUAGUACAAUAAGCUUGUGUUACAUGAGGAUCACCCAUGUCCUCAUAAGCUCGUCUUAA [Mat - Sensor v3 - Turn-off var 2 - D62] (puzzle: Sensor v3, turn-off variant 2)"
  test_target: "MS2 coat protein"
  class_name: "criterion met"
- polymer_sequence: "AGAUGGCGAGGAUAUACAUGAGGAUCACCCAUGUGAGAUAAAAUAGUGAGGAAGAAAAGUAGAAGGCGCUGUCA [Mat - Exclusion 3 - Mod of Salish D15] (puzzle: Exclusion 3)"
  test_target: "MS2 coat protein"
  class_name: "criterion met"
- polymer_sequence: "AAAUUGUGAGGAUAUCAGGUGUGCUAGCGUACUGGUACAUCUGAGAAGGCACAUGAGGAUCACCCAUGUUUCUU [Mat - Exclusion 4 - Mod of JL - D43] (puzzle: Exclusion 4)"
  test_target: "MS2 coat protein"
  class_name: "criterion not met"

Determine whether this sequence has apparent KD of MS2 coat protein no lower than 50 nM: GGUCAAGAGCAGCUCCGCGCUGCCAUUGACCGCUCAUUUACAUGAGGAUCACCCAUGUUUUUUGCUCGUCUUAUUAC [Somabi] (puzzle: Sensor v3, turn-off variant 2)
criterion met

Determine whether this sequence has apparent KD of MS2 coat protein no lower than 50 nM: UUUUAACAUGAGGAUCACCCAUGUGAGGAUAUCGAAUUUUUUAUUAAUAUUAAUAAAACGAGAAGGCACAUUUU [JMF 16] (puzzle: Exclusion 1)
criterion met

* * *

- Tested on: MS2 coat protein
- experiment_summary: apparent KD of MS2 coat protein; designed switch direction (-1 OFF switch, 1 ON switch): -1; higher = weaker reporter binding
- test_context: input ligand: FMN 200 uM
Short version: apparent KD of MS2 coat protein at least 30 nM is yes, less is no.

- polymer_sequence: "UACAUGAGGAUCACCCAUGUUUUGUCGUGUAUGGUAUUUAUCUAGGAUAUCAGUUUAUUUAUUUAUGAGAAGGAGAAUAUUAAU [JMF's solution 7] (Eterna round: R96, puzzle: Exclusion NG 3)"
  class_name: "no"
- polymer_sequence: "UCGUGUCGAGAGGAUAUCUAGGACACCCUUCCAAGAGAAGGCUUGACAUGAGGAUCACCCAUGUACGGGUAAAU [EX6 A.9] (Eterna round: R97, puzzle: Exclusion 6)"
  class_name: "no"
- polymer_sequence: "GACCAGCUAGGAUAUACAUGAGGAUCACCCAUGUGCAUUAAAGGGCUGGGUGACCCGCGUAGAAGGAGCGGGUC [Ustieded] (Eterna round: R97, puzzle: Exclusion 3)"
  class_name: "no"
- polymer_sequence: "UUUUAACAUGAGGAUCACCCAUGUGAGGAUAUCGAAAUUUAUAUUAAUAUUUAUAUUACGAGAAGGCACAUUUU [JMF 58] (Eterna round: R96, puzzle: Exclusion 1)"
  class_name: "yes"

Now consider a different sequence.
Determine whether this sequence has apparent KD of MS2 coat protein no lower than 30 nM: UAUUAGCAAGUAAGAUCCCACAUGAGGAUCACCCAUGUGCUCGUCAUAUCAGGUACUGUGAGGAAACUCACGGUACG [Sensor-V1 #86] (Eterna round: R97, puzzle: Sensor, turn-off variant 1)
yes

* * *

- Test system: MS2 coat protein
- experiment_summary: apparent KD of MS2 coat protein; designed switch direction (-1 OFF switch, 1 ON switch): -1; higher = weaker reporter binding
- test_context: input ligand: none
property: apparent KD of MS2 coat protein

# batch: return apparent KD of MS2 coat protein for each of the 5 sequences below
1. GUAAAUCAUGUAGGAUAUGCAUAGCAAAGCUAUGCAGAAGGACAUGAGGAUCACCCAUGUCAUUCCGUCUGGAGACAGACGGAA [Mat - Exclusion NG 1 - Mod of JL - D59] (Eterna round: R96, puzzle: Exclusion NG 1)
2. GUUUAAUUAGGAUAUGCAAGCGGUGUUAGAAAAGUAUCCAAACAUGAGGAUCACCCAUGUAGAAGGAGUUGUUG [Eternabot (L2) Solution 59] (Eterna round: R97, puzzle: Exclusion 2)
3. GACUGACAUGAGGAUCACCCAUGUAAGGAUAUAGGGAACGUCGUUCCGCAACCCGCGCCUAGAAGGUACAAGGU [EX1 C.11] (Eterna round: R97, puzzle: Exclusion 1)
4. UUGUAACAUGAGGAUCACCCAUGUGAGGAUAUGGUUAAGUAAUGUAAUGUAAAGUAAUCCAGAAGGCACAUGUU [1st #24] (Eterna round: R97, puzzle: Exclusion 1)
5. CAGUACAGAGGAUAUACAUGAGGAUCACCCAUGUGUAGCAGCUAGGAGACUAGCGCAUGUAGAAGGCUGUACUG [jl-ex3-4.31 salish99 mod] (Eterna round: R97, puzzle: Exclusion 3)

1: 32.2 nM; 2: 30.2 nM; 3: 16.1 nM; 4: 328 nM; 5: 21.3 nM

* * *

- Tested on: MS2 coat protein
- experiment_summary: apparent KD of MS2 coat protein; designed switch direction (-1 OFF switch, 1 ON switch): -1; higher = weaker reporter binding
- test_context: Eterna round: R95; input ligand: microRNA oligo, concentration not stated
Provide the reported apparent KD of MS2 coat protein of each item.
Answers are plain numbers, in nM.

# batch: return apparent KD of MS2 coat protein for each of the 3 sequences below
1. GUGUACAGAGGAUAUACAAGAGGAGUUACGAAAGUAACUUCACAUGAGGAUCACCCAUGUAGAAGGCUGUACAC [Dot plot directed v7] (puzzle: Exclusion 2)
2. ACCUCACAUGAGGAUCACCCAUGUCAGGAUAUACAAACCGUGUAAAGACACGGUCGUAGUAGAAGGGACUAUGG [Telalebees] (puzzle: Exclusion 1)
3. AAUUCACAUGAGGAUCACCCAUGUCAGGAUAUGGUUUCACGUGUUUCGGUGCGUGAGGCCAGAAGGGACAGCUA (puzzle: Exclusion 1)

1: 21.2; 2: 59.1; 3: 49.7

* * *

- System: MS2 coat protein
- experiment_summary: apparent KD of MS2 coat protein; designed switch direction (-1 OFF switch, 1 ON switch): 1; higher = weaker reporter binding
- test_context: input ligand: microRNA oligo, concentration not stated
property: apparent KD of MS2 coat protein (nM)
One number for each entry, in nM.

- polymer_sequence: "GUGGUCAGACAUGAGGAUCACCCAUGUGGAAUAAAUAACAGACAGGAUAUAUAAUAUAGGAUAUAGUAGAAGGGUCGAUUGGUG (Eterna round: R96, puzzle: Same State NG 3)"
  property: "apparent KD of MS2 coat protein"
  value_reported: 69.7

# batch: return apparent KD of MS2 coat protein for each of the 3 sequences below
1. GUGCUCGUGUAAGGAUAUGCAGCCGUUUCGGCUGCAGAAGGUACUAUAAUACAUGAGGAUCACCCAUGUCUCUAUUGUUUGGUG [salish99_SSNG1_r04_906] (Eterna round: R96, puzzle: Same State NG 1)
2. GGAGCCGGCCUAGGAUAUUUCAUAAGAAAACAUGAGGAUCACCCAUGUAGGCCAGAAGGCCUUGGGAAGAAGGAGGUCGGCUCC [Loop Effect - G26] (Eterna round: R96, puzzle: Same State NG 2)
3. GCUAGGAUUAAAGCCAACAUGAGGAUCACCCAUGUAUGUUGGUAGGAUAUCGUUUGCAAAGCAAACGAGAAGGGCUAACCUAGC [Mat - Same State NG 3 - JL Mod - D67] (Eterna round: R96, puzzle: Same State NG 3)

76.3
19.7
73

* * *

- System: K4 kissing-loop RNA reporter;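 further: bound reporter read as fluorescence of individual clusters on recovered sequencing chips by microscopy, with normalized cluster intensities fitted with a binding model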
- experiment_summary: apparent KD of K4 kissing-loop reporter; higher = weaker reporter binding
- test_context: Eterna round: R107; input ligand: arginine 13.2 mM
Provide the reported apparent KD of K4 kissing-loop reporter of each item.

Answered cases to consult:
- polymer_sequence: "CGGCUCACGCAAGGAUAUCGCAGUGAGUACUCUGGAAGAAUAAAGCUAGUGAUGUUAGGUUAGAAGCGAGAAGGUGCGGCCGUAU [theeternabot_sameState_KL_FMN_B_30]"
  apparent KD of K4 kissing-loop reporter: "96.5 nM"
- polymer_sequence: "AAAACUCCGGGUAGUGAUGUUACCUAGGAUACCAGUAUCGCAACAUACCCUUGGCAGCCUCUUCCUGCUGGCGUCGCUUGGCCUA [theeternabot_exclusion_KL_Theo_A_42]"
  apparent KD of K4 kissing-loop reporter: "80.5 nM"
- polymer_sequence: "GGAGGGAUCUCGGCCGCCACUCAUAAGAAAUGAACCUAAGAAAUAUAGUGAUGUUAUAUAAAGAAGAGGACCGGGAGAAAGGAGG [ExTryptoB.A]"
  apparent KD of K4 kissing-loop reporter: "171 nM"
- polymer_sequence: "CCAUCGCUAUUCGAUACCAGUCAGGAGGUCUGUGACCUCCUAAUGGAGUGAUGUUCCUUAGACCCUUGGCAGCGAAUAGUGAUGG [#02 K4 Theophylline B Same State]"
  apparent KD of K4 kissing-loop reporter: "196 nM"
- polymer_sequence: "UAAUCCUAGUGAUCCUUAUCAAGUGGUGGGCGAGGACCGGUACGGCCGCCACUCGAAUAUGCAGUGAUGUUGUAAUCCGGAUAAU [Exclusion - Tryptophan A (Freestyle 9)]"
  apparent KD of K4 kissing-loop reporter: "741 nM"

What value of apparent KD of K4 kissing-loop reporter on K4 kissing-loop RNA reporter does UUAAUAAUUCAAGGAUAUGUUUUCUAUUUCGAGUGAUGUUCGGAAUUAAUAAAUUUAAAAGAUUAUACAGAAGGUGAUGGAUAGU [Cynwulf-mod#4] have?
117 nM

meta.source: the supplement of paper PMC9170038
